Exercise: for every item that follows, state its recorded LD50.
testProtocol: Acute toxicity in mice
Format: in vivo
protocolConditions: mouse, in vivo, po; single dose intragastrically
Give bare numbers, in mg/kg.

{"compound": "CC1CCC2C(C)C(OC(=O)Nc3ccccc3)OC3OC4(C)CCC1C32OO4 (centres unmarked) [Dihydroqinghaosu-benzenecarbamate]", "endpointLabel": "LD50", "quantitativeReadout": 1040}

Then there is this compound:
input: Endpoint output: LD50 of CNC(=O)OC1OC2OC3(C)CCC4C(C)CCC(C1C)C24OO3 (centres unmarked) [Dihydroqinghaosu-methylcarbamate, Dihydroqinghaosu-Methylcarbamate] . Value?
output: 1030

----------
Test system: Plasmodium Berghei
testProtocol: Peters' four day inhibition test in mice, erythrocytic stage of Plasmodium Berghei
Type: in vivo
protocolConditions: once a day D0-D3, Hybrid Kunming strain mice, read-out: SD50 (the source's name)
Exercise: for every item that follows, state its recorded ED50.
One number for each entry, in mg/kg.

Example compounds with recorded ED50:
{"compound": "CCCCNC(=O)OC1OC2OC3(C)CCC4C(C)CCC(C1C)C24OO3 (stereo not shown) [Dihydroqinghaosu-butylcarbamate, dihydroqinghaosu-butylcarbamate]", "unitString": "mg/kg", "ED50": 0.25}
{"compound": "CC1CCC2C(C)C(OC(=O)Nc3ccccc3)OC3OC4(C)CCC1C32OO4 (stereo not shown) [Dihydroqinghaosu-benzenecarbamate]", "unitString": "mg/kg", "ED50": 0.29}

// batch mode: one ED50 value per listed entry
1. CNC(=O)OC1OC2OC3(C)CCC4C(C)CCC(C1C)C24OO3 (stereo not shown) [Dihydroqinghaosu-methylcarbamate, Dihydroqinghaosu-Methylcarbamate]
2. CC1CCC2C(C)C(OC(=O)Nc3ccc([N+](=O)[O-])cc3)OC3OC4(C)CCC1C32OO4 (stereo not shown) [Dihydroqinghaosu-4-nitrobenzenecarbamate, Dihydroqinghaosu-P-Nitrobenzenecarbamate]

output:
0.24
0.3

----------
testProtocol: Subacute toxicologic study
protocolConditions: in vivo, read-out: basic safe dosage
Exercise: for every item that follows, state its recorded NOAEL.
One number for each entry, in mg/kg/day.

{"compound": "CNC(=O)OC1OC2OC3(C)CCC4C(C)CCC(C1C)C24OO3 (centres unmarked) [Dihydroqinghaosu-methylcarbamate, Dihydroqinghaosu-Methylcarbamate]", "unitString": "mg/kg/day", "NOAEL": 30.2}

Then there is this compound:
input: Endpoint output: NOAEL of CC1CCC2C(C)C(OC(=O)Nc3ccccc3)OC3OC4(C)CCC1C32OO4 (centres unmarked) [Dihydroqinghaosu-benzenecarbamate] . Value?
output: 54

----------
testProtocol: Acute toxicity in mice
Format: in vivo
protocolConditions: mouse, in vivo, im; I.M. (Intramuscular injection)
Procedure: Animals: Hybrid swiss strain mice (provided by Animal House of Institute of Chinese Mateia Media, China Academy of Traditional Chinese Medicine), 20-22 grams, less than 6 weeks age of both sexes fed in laboretory for 3-5 days observation and a random taking food and drinking. Drugs: Dihydroqinghaosu-methylcarbamate and dihydroqinghaosu-benzenecarbamate. Above two drugs in powder form were dissolved into peanut oil. The biggest dose were 2000 mg/kg and 2161 mg/kg respectively. […]
endpointLabel: LD50 (mg/kg)
Give bare numbers, in mg/kg.

input: Endpoint output: LD50 of CO[C@H]1O[C@@H]2O[C@@]3(C)CC[C@H]4[C@H](C)CC[C@@H]([C@H]1C)[C@@]24OO3 [Artemether, reference compound] . Value?
output: 263

----------
testProtocol: Acute toxicity in mice
Format: in vivo
protocolConditions: mouse, in vivo, po, F; single dose intragastrically
endpointLabel: LD50 (mg/kg)
Numbers only, in mg/kg.

{"compound": "CC1CCC2C(C)C(OC(=O)Nc3ccccc3)OC3OC4(C)CCC1C32OO4 (centres unmarked) [Dihydroqinghaosu-benzenecarbamate]", "LD50 / mg/kg": 1100}

input: Endpoint output: LD50 of CNC(=O)OC1OC2OC3(C)CCC4C(C)CCC(C1C)C24OO3 (centres unmarked) [Dihydroqinghaosu-methylcarbamate, Dihydroqinghaosu-Methylcarbamate] . Value?
output: 1210
